// provenance: patent US8203011B2

- System: human mucoepidermoid pulmonary carcinoma cell line NCI-H292
- measurementDescription: Mucin secretion (MUC4, MUC5AC) by ELISA in NCI-H292 cells
- Type: cell-based
- recordedConditions: 20 μg/mL, 24 hours, read-out: % increase in mucin secretion vs. non-treated control group
metricName: activation at 20 µg/mL (%)

1) COc1ccc(-c2cc(=O)c3c(OC)cc(OCC(N)=O)cc3o2)cc1OC [Example 3] | 10.4
2) COc1ccc(-c2cc(=O)c3c(OC)cc(OCC(=O)NS(=O)(=O)c4ccccc4)cc3o2)cc1OC [Example 5] | 35.4
3) COc1ccc(-c2cc(=O)c3c(OC)cc(OCC(=O)NC(C)=O)cc3o2)cc1OC [Example 12] | 20.5
4) COc1ccc(-c2cc(=O)c3c(OC)cc(OCC(=O)O)cc3o2)cc1OC.O [monohydrate] | 52.5
5) COc1ccc(-c2cc(=O)c3c(OC)cc(OCC(=O)NC#N)cc3o2)cc1OC [Example 4] | 4.3
6) COc1ccc(-c2cc(=O)c3c(OC)cc(OCC(=O)NS(N)(=O)=O)cc3o2)cc1OC [Example 8] | 15.4
7) COc1ccc(-c2cc(=O)c3c(OC)cc(OCC(=O)NS(C)(=O)=O)cc3o2)cc1OC [Example 9] | 37.4
8) COc1ccc(-c2cc(=O)c3c(OC)cc(OCc4nnn[nH]4)cc3o2)cc1OC [Example 1] | 57.8
9) COc1ccc(-c2cc(=O)c3c(OC)cc(OCC(=O)NC(N)=O)cc3o2)cc1OC [Example 10] | 15.4
